Hello, the source for this data is PubChem BioAssay (NCI), in case you need it.

For each entry below, report its growth value.
system: OVCAR-4 ovarian; test: NCI-60 one-dose screen, 48 h (100 = growth as untreated, 0 = no growth, -100 = all killed); settings: 10 µM unless noted
The panel holds about 83,000 compounds, 20% with a hit somewhere; the sample as a whole holds those more often.
Give the value, in units of %, as a plain number.

Enquiry: Please tell me the measured growth for `Nc1c(C(=O)Nc2ccnc3ccccc23)sc2nc3c(cc12)CN(Cc1ccccc1)CC3` ; system: OVCAR-4 ovarian.
Return: 78.6

Enquiry: Please tell me the measured growth for `CCCCCN1C=C/C(=C\C(=O)n2ccc3ccccc32)c2ccccc21` ; system: OVCAR-4 ovarian.
Return: 71.6

Enquiry: Please tell me the measured growth for `Cc1cc2nc3c4cc([N+](=O)[O-])ccc4n(CCN(C)C)c3nc2cc1C` ; system: OVCAR-4 ovarian.
Return: 9.25

Enquiry: Please tell me the measured growth for COc1cc2c(c(OC)c1OC)-c1ccc(NNC(=S)N(Cc3cccc(C[N+](Cc4cccc(CNC56CC7CC(CC(C7)C5)C6)c4)(Cc4cccc(CNC56CC7CC(CC(C7)C5)C6)c4)Cc4cccc(CN(C(=S)NNc5ccc6c(cc5=O)[C@@H](NC(C)=O)CCc5cc(OC)c(OC)c(OC)c5-6)C56CC7CC(CC(C7)C5)C6)c4)c3)C34CC5CC(CC(C5)C3)C4)c(=O)cc1[C@@H](NC(C)=O)CC2 (stereo partly specified) ; system: OVCAR-4 ovarian.
Return: 29.3

Enquiry: Please tell me the measured growth for `CN1CCN(C(=O)[C@]23CCC(C)(C)C[C@H]2C2=CC[C@@H]4[C@@]5(C)C/C(=C/c6cccnc6)C(=O)C(C)(C)[C@@H]5CC[C@@]4(C)[C@]2(C)CC3)CC1` ; system: OVCAR-4 ovarian.
Return: 58.1

Enquiry: Please tell me the measured growth for `CC(C)(C)c1cc(/C=N/NC(=O)c2ccccc2NC(=O)c2cccs2)c(O)c(C(C)(C)C)c1` ; system: OVCAR-4 ovarian.
Return: -34.6
